Would you kindly list %-inhibition of DYRK3 for each of these compounds?
Biological target: panel of more than 300 wild-type and mutant kinases (313 kinase panel) (Homo sapiens, UniProt O43781)
Sequence (O43781 whole entry, change not shown): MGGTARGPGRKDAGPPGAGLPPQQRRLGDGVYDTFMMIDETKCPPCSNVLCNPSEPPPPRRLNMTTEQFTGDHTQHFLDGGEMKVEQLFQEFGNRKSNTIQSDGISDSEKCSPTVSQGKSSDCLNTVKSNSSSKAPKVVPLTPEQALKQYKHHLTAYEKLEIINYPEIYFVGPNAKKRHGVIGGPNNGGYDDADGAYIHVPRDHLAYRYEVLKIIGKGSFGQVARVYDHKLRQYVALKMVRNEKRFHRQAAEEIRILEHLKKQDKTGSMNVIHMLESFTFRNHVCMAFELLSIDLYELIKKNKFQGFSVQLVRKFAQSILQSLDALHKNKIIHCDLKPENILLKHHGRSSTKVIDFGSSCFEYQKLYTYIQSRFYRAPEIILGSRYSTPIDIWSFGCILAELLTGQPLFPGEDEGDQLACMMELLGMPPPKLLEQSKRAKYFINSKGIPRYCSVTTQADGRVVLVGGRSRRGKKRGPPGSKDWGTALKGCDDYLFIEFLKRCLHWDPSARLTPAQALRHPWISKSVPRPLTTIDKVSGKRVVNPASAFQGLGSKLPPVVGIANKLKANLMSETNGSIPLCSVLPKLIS
Assay: Kinase profiling in a biochemical assay panel (mobility shift assays and ELISA), %-inhibition at 1 μM; selectivity entropy
Conditions: kinase DYRK3; compound at 1 μM
Numbers only, in %.

Consider the worked cases shown below.
CO[C@H]1C[C@@H]2CC[C@@H](C)[C@@](O)(O2)C(=O)C(=O)N2CCCC[C@H]2C(=O)O[C@H]([C@H](C)C[C@@H]2CC[C@@H](OC(=O)C(C)(CO)CO)[C@H](OC)C2)CC(=O)[C@H](C)/C=C(\C)[C@@H](O)[C@@H](OC)C(=O)[C@H](C)C[C@H](C)/C=C/C=C/C=C/1C : -0.454
CS(=O)(=O)CCNCc1ccc(-c2ccc3ncnc(Nc4ccc(OCc5cccc(F)c5)c(Cl)c4)c3c2)o1 : -2.24
CC(C)(C)c1nc(-c2cccc(NS(=O)(=O)c3c(F)cccc3F)c2F)c(-c2ccnc(N)n2)s1 : -5.68
CO[C@H]1C[C@@H]2CC[C@@H](C)[C@@](O)(O2)C(=O)C(=O)N2CCCC[C@H]2C(=O)O[C@H]([C@H](C)C[C@@H]2CC[C@@H](OCCO)[C@H](OC)C2)CC(=O)[C@H](C)/C=C(\C)[C@@H](O)[C@@H](OC)C(=O)[C@H](C)C[C@H](C)/C=C/C=C/C=C/1C : -11

Query :: Could you tell me which %-inhibition of DYRK3 is on file for CC(=O)Nc1cccc(-n2c(=O)n(C3CC3)c(=O)c3c(Nc4ccc(I)cc4F)n(C)c(=O)c(C)c32)c1 ?
Result :: -10

---

Target: panel of more than 300 wild-type and mutant kinases (313 kinase panel) (Homo sapiens, UniProt P42336)
Assay: Kinase profiling in a biochemical assay panel (mobility shift assays and ELISA), %-inhibition at 1 μM; selectivity entropy
Details: kinase PIK3CA/PIK3R1; 1 μM
Measured attribute: %-inhibition of PIK3CA/PIK3R1 (%)
Answers are plain numbers, in %.

Consider the worked cases shown below.
CO[C@H]1C[C@@H]2CC[C@@H](C)[C@@](O)(O2)C(=O)C(=O)N2CCCC[C@H]2C(=O)O[C@H]([C@H](C)C[C@@H]2CC[C@@H](OC(=O)C(C)(CO)CO)[C@H](OC)C2)CC(=O)[C@H](C)/C=C(\C)[C@@H](O)[C@@H](OC)C(=O)[C@H](C)C[C@H](C)/C=C/C=C/C=C/1C : 22
Cc1ccc(Nc2nccc(N(C)c3ccc4c(C)n(C)nc4c3)n2)cc1S(N)(=O)=O : 45
N#CC[C@H](C1CCCC1)n1cc(-c2ncnc3[nH]ccc23)cn1 : 42
CC(=O)Nc1cccc(-n2c(=O)n(C3CC3)c(=O)c3c(Nc4ccc(I)cc4F)n(C)c(=O)c(C)c32)c1 : 0.26

Dear colleague, could you please provide %-inhibition of PIK3CA/PIK3R1 for the molecules listed below?
1. COc1cc2c(Nc3ccc(Br)cc3F)ncnc2cc1OCC1CCN(C)CC1
2. Cc1ccc(C(=O)Nc2ccc(CN3CCN(C)CC3)c(C(F)(F)F)c2)cc1C#Cc1cnc2cccnn12

Result ::
[23, 45]

---

Biological target: panel of more than 300 wild-type and mutant kinases (313 kinase panel) (Homo sapiens, UniProt Q99759)
Sequence (Q99759 1-626): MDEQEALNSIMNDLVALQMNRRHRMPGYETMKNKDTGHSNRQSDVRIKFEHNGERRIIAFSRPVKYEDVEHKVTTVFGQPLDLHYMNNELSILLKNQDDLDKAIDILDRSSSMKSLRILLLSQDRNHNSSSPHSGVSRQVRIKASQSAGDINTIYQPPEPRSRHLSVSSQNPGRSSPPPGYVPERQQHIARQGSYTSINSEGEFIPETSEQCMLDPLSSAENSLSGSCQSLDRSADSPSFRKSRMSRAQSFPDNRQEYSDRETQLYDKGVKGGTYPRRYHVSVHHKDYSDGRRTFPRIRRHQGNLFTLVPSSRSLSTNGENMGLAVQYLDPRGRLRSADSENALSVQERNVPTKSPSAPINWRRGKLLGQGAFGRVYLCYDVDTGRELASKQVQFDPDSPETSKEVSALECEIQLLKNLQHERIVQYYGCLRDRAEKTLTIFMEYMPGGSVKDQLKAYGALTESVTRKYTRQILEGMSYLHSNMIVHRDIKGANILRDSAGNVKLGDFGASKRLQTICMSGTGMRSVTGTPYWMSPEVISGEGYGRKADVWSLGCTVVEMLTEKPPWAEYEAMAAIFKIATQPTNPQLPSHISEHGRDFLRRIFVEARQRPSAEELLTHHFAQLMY
Assay: Kinase profiling in a biochemical assay panel (mobility shift assays and ELISA), %-inhibition at 1 μM; selectivity entropy
Conditions: kinase MAP3K3; compound at 1 μM
Measured attribute: %-inhibition of MAP3K3 (%)
Answers are plain numbers, in %.

CO[C@H]1C[C@@H]2CC[C@@H](C)[C@@](O)(O2)C(=O)C(=O)N2CCCC[C@H]2C(=O)O[C@H]([C@H](C)C[C@@H]2CC[C@@H](OC(=O)C(C)(CO)CO)[C@H](OC)C2)CC(=O)[C@H](C)/C=C(\C)[C@@H](O)[C@@H](OC)C(=O)[C@H](C)C[C@H](C)/C=C/C=C/C=C/1C : 10

Dear colleague, could you please provide %-inhibition of MAP3K3 for the compounds listed below?
1. CNC(=O)c1cc(Oc2ccc(NC(=O)Nc3ccc(Cl)c(C(F)(F)F)c3)c(F)c2)ccn1
2. Cc1ccc(Nc2nccc(N(C)c3ccc4c(C)n(C)nc4c3)n2)cc1S(N)(=O)=O
3. CC(=O)Nc1cccc(-n2c(=O)n(C3CC3)c(=O)c3c(Nc4ccc(I)cc4F)n(C)c(=O)c(C)c32)c1
4. O=S(=O)(c1cccc2cnccc12)N1CCCNCC1

Result ::
1. 9
2. 77
3. -6.63
4. -14
